- targetOrTestSystem: human ACSS2 (Homo sapiens, UniProt Q9NR19)
- Construct: The cytosolic fraction of BT474 cells was used as a source of the ACSS2 enzyme; endogenous in cells
- Sequence (Q9NR19 whole entry): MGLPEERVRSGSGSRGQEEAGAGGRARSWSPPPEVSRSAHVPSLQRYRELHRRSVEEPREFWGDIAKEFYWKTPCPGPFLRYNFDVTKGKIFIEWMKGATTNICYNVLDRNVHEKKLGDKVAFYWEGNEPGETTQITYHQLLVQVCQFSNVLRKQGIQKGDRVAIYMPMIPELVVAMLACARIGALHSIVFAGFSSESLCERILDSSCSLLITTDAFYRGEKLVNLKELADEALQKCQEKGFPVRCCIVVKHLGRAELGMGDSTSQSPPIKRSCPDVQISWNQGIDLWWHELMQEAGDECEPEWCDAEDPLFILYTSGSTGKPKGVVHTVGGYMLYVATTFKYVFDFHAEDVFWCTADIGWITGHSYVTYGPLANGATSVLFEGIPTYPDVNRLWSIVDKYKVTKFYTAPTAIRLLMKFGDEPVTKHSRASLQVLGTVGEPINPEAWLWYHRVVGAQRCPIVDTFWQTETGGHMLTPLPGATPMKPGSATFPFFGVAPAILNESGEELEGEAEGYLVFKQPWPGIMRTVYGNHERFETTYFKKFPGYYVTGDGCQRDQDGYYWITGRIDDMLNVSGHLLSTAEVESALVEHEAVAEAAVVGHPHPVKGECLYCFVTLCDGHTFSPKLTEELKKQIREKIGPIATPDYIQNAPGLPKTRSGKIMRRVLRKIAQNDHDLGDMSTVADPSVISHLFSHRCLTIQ
- testDetails: ACSS2 enzyme assay (acetyl-CoA formation, LC-MS/MS)
- conditionParameters: cytosolic fraction of BT474 cells as ACSS2 source; 100 μM acetate, CoA and ATP; 2 h at 25° C.; read-out: Enzyme Activity (IC50 range)
pIC50: −log10 of the molar value.
Each entry below carries its reported pIC50.

[
  {
    "compound": "CC[C@@H](O)CNC(=O)Nc1ccc2nc(-c3ccccc3OC)c(-c3ccccc3F)cc2c1",
    "targetOrTestSystem": "human ACSS2 (Homo sapiens, UniProt Q9NR19)",
    "pIC50": "> 7.00"
  },
  {
    "compound": "CCC(O)CNC(=O)Nc1ccc2nc(C)cc(C(N)=O)c2c1 (centres unmarked)",
    "targetOrTestSystem": "human ACSS2 (Homo sapiens, UniProt Q9NR19)",
    "pIC50": "≥ 5.00"
  },
  {
    "compound": "CCC(O)CNC(=O)Nc1ccc2nc(C)c(-c3ccccc3)cc2c1C (centres unmarked)",
    "targetOrTestSystem": "human ACSS2 (Homo sapiens, UniProt Q9NR19)",
    "pIC50": "> 7.00"
  },
  {
    "compound": "CC[C@@H](O)CNC(=O)Nc1ccc2nc(-c3ccccc3)c(-c3ccccc3)cc2c1",
    "targetOrTestSystem": "human ACSS2 (Homo sapiens, UniProt Q9NR19)",
    "pIC50": "> 7.00"
  },
  {
    "compound": "CC[C@H](O)CNC(=O)Nc1ccc2nc(-c3ccccc3F)c(-c3ccccc3F)cc2c1",
    "targetOrTestSystem": "human ACSS2 (Homo sapiens, UniProt Q9NR19)",
    "pIC50": "> 7.00"
  }
]

* * *

Recorded pIC50, one value per entry.
- targetOrTestSystem: human ACSS2 (Homo sapiens, UniProt Q9NR19)
- Construct: The cytosolic fraction of BT474 cells was used as a source of the ACSS2 enzyme; endogenous in cells
- testDetails: ACSS2 enzyme assay (acetyl-CoA formation, LC-MS/MS)
- conditionParameters: cytosolic fraction of BT474 cells as ACSS2 source; 100 μM acetate, CoA and ATP; 2 h at 25° C.; read-out: Enzyme Activity (IC50 range)
pIC50: −log10 of the molar value.
attributeMeasured: pIC50

[
  {
    "compound": "Cn1cc(NC(=O)Nc2ccc3nc(-c4ccccc4)c(-c4ccccc4)cc3c2)cn1",
    "targetOrTestSystem": "human ACSS2 (Homo sapiens, UniProt Q9NR19)",
    "attributeMeasured": "pIC50",
    "recordedValue": "≥ 6.00"
  },
  {
    "compound": "CCC(O)CNC(=O)Nc1ccc2nc(C)c(-c3ccccc3C)cc2c1 (stereo not shown)",
    "targetOrTestSystem": "human ACSS2 (Homo sapiens, UniProt Q9NR19)",
    "attributeMeasured": "pIC50",
    "recordedValue": "> 7.00"
  },
  {
    "compound": "C#Cc1nc2ccc(NC(=O)NCC(O)CC)cc2cc1-c1ccccc1 (stereo not shown)",
    "targetOrTestSystem": "human ACSS2 (Homo sapiens, UniProt Q9NR19)",
    "attributeMeasured": "pIC50",
    "recordedValue": "> 7.00"
  },
  {
    "compound": "CCC(O)CNC(=O)Nc1ccc2nc(-c3cccnc3)c(-c3ccccc3)cc2c1 (stereo not shown)",
    "targetOrTestSystem": "human ACSS2 (Homo sapiens, UniProt Q9NR19)",
    "attributeMeasured": "pIC50",
    "recordedValue": "> 7.00"
  },
  {
    "compound": "CCC(O)CNC(=O)Nc1ccc2nc(-c3cccc(F)c3)c(-c3cccc(F)c3)cc2c1 (stereo not shown)",
    "targetOrTestSystem": "human ACSS2 (Homo sapiens, UniProt Q9NR19)",
    "attributeMeasured": "pIC50",
    "recordedValue": "≥ 6.00"
  },
  {
    "compound": "CCC(O)CNC(=O)Nc1ccc2nc(-c3ccccc3)c(-c3ccccc3)cc2c1 (stereo not shown)",
    "targetOrTestSystem": "human ACSS2 (Homo sapiens, UniProt Q9NR19)",
    "attributeMeasured": "pIC50",
    "recordedValue": "> 7.00"
  },
  {
    "compound": "O=C(Nc1ccc2nc(-c3ccccc3)c(-c3ccccc3)cc2c1)Nc1ccccn1",
    "targetOrTestSystem": "human ACSS2 (Homo sapiens, UniProt Q9NR19)",
    "attributeMeasured": "pIC50",
    "recordedValue": "< 5.00"
  },
  {
    "compound": "CCC(O)CNC(=O)Nc1ccc2nc(-c3ccccc3)c(-c3ccccc3F)cc2c1 (stereo not shown)",
    "targetOrTestSystem": "human ACSS2 (Homo sapiens, UniProt Q9NR19)",
    "attributeMeasured": "pIC50",
    "recordedValue": "> 7.00"
  },
  {
    "compound": "CCC(O)CNC(=O)Nc1ccc2nc(-c3cccnc3O)c(-c3cccnc3O)cc2c1 (stereo not shown)",
    "targetOrTestSystem": "human ACSS2 (Homo sapiens, UniProt Q9NR19)",
    "attributeMeasured": "pIC50",
    "recordedValue": "< 5.00"
  },
  {
    "compound": "CN1CCN(C(=O)Nc2ccc3nc(-c4ccccc4)c(-c4ccccc4)cc3c2)CC1",
    "targetOrTestSystem": "human ACSS2 (Homo sapiens, UniProt Q9NR19)",
    "attributeMeasured": "pIC50",
    "recordedValue": "≥ 5.00"
  },
  {
    "compound": "CCC(F)(F)CNC(=O)Nc1ccc2nc(-c3ccccc3)c(-c3ccccc3)cc2c1",
    "targetOrTestSystem": "human ACSS2 (Homo sapiens, UniProt Q9NR19)",
    "attributeMeasured": "pIC50",
    "recordedValue": "> 7.00"
  },
  {
    "compound": "CCC(O)CNC(=O)Nc1ccc2nc(C)c(-c3ccccc3Cl)cc2c1 (stereo not shown)",
    "targetOrTestSystem": "human ACSS2 (Homo sapiens, UniProt Q9NR19)",
    "attributeMeasured": "pIC50",
    "recordedValue": "> 7.00"
  },
  {
    "compound": "O=C(Nc1ccc2nc(-c3ccccc3)c(-c3ccccc3)cc2c1)NC1CCOCC1",
    "targetOrTestSystem": "human ACSS2 (Homo sapiens, UniProt Q9NR19)",
    "attributeMeasured": "pIC50",
    "recordedValue": "≥ 6.00"
  },
  {
    "compound": "CCC(O)CNC(=O)Nc1cnc2nc(-c3ccccc3)c(-c3ccccc3)cc2c1 (stereo not shown)",
    "targetOrTestSystem": "human ACSS2 (Homo sapiens, UniProt Q9NR19)",
    "attributeMeasured": "pIC50",
    "recordedValue": "≥ 6.00"
  },
  {
    "compound": "CCC(O)CNC(=O)Nc1ccc2nc(CCc3ccccc3)c(-c3ccccc3)cc2c1 (stereo not shown)",
    "targetOrTestSystem": "human ACSS2 (Homo sapiens, UniProt Q9NR19)",
    "attributeMeasured": "pIC50",
    "recordedValue": "≥ 5.00"
  },
  {
    "compound": "O=C(Nc1ccc2nc(-c3ccccc3)c(-c3ccccc3)cc2c1)NC1(CO)CCCC1",
    "targetOrTestSystem": "human ACSS2 (Homo sapiens, UniProt Q9NR19)",
    "attributeMeasured": "pIC50",
    "recordedValue": "< 5.00"
  },
  {
    "compound": "CC[C@@H](O)CNC(=O)Nc1ccc2nc(-c3ccccc3)c(C)c(C(=O)NC)c2c1",
    "targetOrTestSystem": "human ACSS2 (Homo sapiens, UniProt Q9NR19)",
    "attributeMeasured": "pIC50",
    "recordedValue": "> 7.00"
  },
  {
    "compound": "COCCNC(=O)Nc1ccc2nc(C)c(-c3ccccc3)cc2c1",
    "targetOrTestSystem": "human ACSS2 (Homo sapiens, UniProt Q9NR19)",
    "attributeMeasured": "pIC50",
    "recordedValue": "≥ 6.00"
  },
  {
    "compound": "CCC(O)CNC(=O)Nc1ccc2nc(-c3ccccc3OC)c(-c3ccccc3OC)cc2c1 (stereo not shown)",
    "targetOrTestSystem": "human ACSS2 (Homo sapiens, UniProt Q9NR19)",
    "attributeMeasured": "pIC50",
    "recordedValue": "> 7.00"
  },
  {
    "compound": "CCCCCC(=O)Nc1ccc2nc(-c3ccccc3)c(-c3ccccc3)cc2c1",
    "targetOrTestSystem": "human ACSS2 (Homo sapiens, UniProt Q9NR19)",
    "attributeMeasured": "pIC50",
    "recordedValue": "≥ 6.00"
  },
  {
    "compound": "CC[C@@H](O)CNC(=O)Nc1ccc2nc(C)c(-c3ccccc3)cc2c1-c1cnn(C)c1",
    "targetOrTestSystem": "human ACSS2 (Homo sapiens, UniProt Q9NR19)",
    "attributeMeasured": "pIC50",
    "recordedValue": "> 7.00"
  },
  {
    "compound": "CC[C@@H](O)CNC(=O)Nc1ccc2nc(-c3ccccc3)c(-c3ccccc3)c(OC)c2c1",
    "targetOrTestSystem": "human ACSS2 (Homo sapiens, UniProt Q9NR19)",
    "attributeMeasured": "pIC50",
    "recordedValue": "> 7.00"
  },
  {
    "compound": "CCC(O)CNC(=O)Nc1ccc2nc(C)c(-c3ccccc3)c(C#N)c2c1 (stereo not shown)",
    "targetOrTestSystem": "human ACSS2 (Homo sapiens, UniProt Q9NR19)",
    "attributeMeasured": "pIC50",
    "recordedValue": "≥ 6.00"
  },
  {
    "compound": "CCC(O)CNC(=O)Nc1ccc2nc(C)c(-c3cccnc3)cc2c1 (stereo not shown)",
    "targetOrTestSystem": "human ACSS2 (Homo sapiens, UniProt Q9NR19)",
    "attributeMeasured": "pIC50",
    "recordedValue": "> 7.00"
  },
  {
    "compound": "COCCNC(=O)Nc1ccc2nc(C)c(-c3ccccc3F)cc2c1",
    "targetOrTestSystem": "human ACSS2 (Homo sapiens, UniProt Q9NR19)",
    "attributeMeasured": "pIC50",
    "recordedValue": "≥ 6.00"
  },
  {
    "compound": "CC[C@H](O)CNC(=O)Nc1ccc2nc(-c3ccccc3)c(-c3ccccc3F)cc2c1",
    "targetOrTestSystem": "human ACSS2 (Homo sapiens, UniProt Q9NR19)",
    "attributeMeasured": "pIC50",
    "recordedValue": "> 7.00"
  },
  {
    "compound": "CCC(O)CNC(=O)Nc1ccc2nc(C3CC3)c(-c3ccccc3)cc2c1 (stereo not shown)",
    "targetOrTestSystem": "human ACSS2 (Homo sapiens, UniProt Q9NR19)",
    "attributeMeasured": "pIC50",
    "recordedValue": "≥ 6.00"
  },
  {
    "compound": "CCC(O)CNC(=O)Nc1ccc2nc(-c3cn[nH]c3)c(-c3cn[nH]c3)cc2c1 (stereo not shown)",
    "targetOrTestSystem": "human ACSS2 (Homo sapiens, UniProt Q9NR19)",
    "attributeMeasured": "pIC50",
    "recordedValue": "≥ 5.00"
  },
  {
    "compound": "CCC(O)CCC(=O)Nc1ccc2nc(C)c(-c3ccccc3F)cc2c1 (stereo not shown)",
    "targetOrTestSystem": "human ACSS2 (Homo sapiens, UniProt Q9NR19)",
    "attributeMeasured": "pIC50",
    "recordedValue": "> 7.00"
  },
  {
    "compound": "CCC(O)CNC(=O)Nc1ccc2nc(-c3ccccc3)c(-c3ccccc3)c(NC(C)=O)c2c1 (stereo not shown)",
    "targetOrTestSystem": "human ACSS2 (Homo sapiens, UniProt Q9NR19)",
    "attributeMeasured": "pIC50",
    "recordedValue": "> 7.00"
  },
  {
    "compound": "COC1CCN(C(=O)Nc2ccc3nc(-c4ccccc4)c(-c4ccccc4)cc3c2)C1 (stereo not shown)",
    "targetOrTestSystem": "human ACSS2 (Homo sapiens, UniProt Q9NR19)",
    "attributeMeasured": "pIC50",
    "recordedValue": "> 7.00"
  },
  {
    "compound": "CCC(=O)CCC(=O)Nc1ccc2nc(-c3ccccc3F)c(-c3ccccc3)cc2c1",
    "targetOrTestSystem": "human ACSS2 (Homo sapiens, UniProt Q9NR19)",
    "attributeMeasured": "pIC50",
    "recordedValue": "> 7.00"
  },
  {
    "compound": "CCC(O)CNC(=O)Nc1ccc2nc(-c3ccccc3)c(-c3ccccc3)c(C(=O)OC)c2c1 (stereo not shown)",
    "targetOrTestSystem": "human ACSS2 (Homo sapiens, UniProt Q9NR19)",
    "attributeMeasured": "pIC50",
    "recordedValue": "> 7.00"
  },
  {
    "compound": "CCC(=O)CCC(=O)Nc1ccc2nc(-c3ccccc3OC)c(-c3ccccc3)cc2c1",
    "targetOrTestSystem": "human ACSS2 (Homo sapiens, UniProt Q9NR19)",
    "attributeMeasured": "pIC50",
    "recordedValue": "> 7.00"
  }
]

This collection of values is drawn from patent US20220298115A1.
